# subjectOfTest: 15-hydroxyprostaglandin dehydrogenase [NAD(+)] (Homo sapiens) (UniProt P15428)
# Sequence (P15428 whole entry, looked up): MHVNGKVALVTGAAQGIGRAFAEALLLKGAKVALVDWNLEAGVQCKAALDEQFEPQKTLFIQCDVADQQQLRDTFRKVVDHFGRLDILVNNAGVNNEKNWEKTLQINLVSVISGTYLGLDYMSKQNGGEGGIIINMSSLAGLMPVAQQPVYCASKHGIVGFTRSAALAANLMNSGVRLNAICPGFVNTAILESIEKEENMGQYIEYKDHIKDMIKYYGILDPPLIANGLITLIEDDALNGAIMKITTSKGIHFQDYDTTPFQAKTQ
# experimentDescription: qHTS Assay for Inhibitors of HPGD (15-Hydroxyprostaglandin Dehydrogenase); for activity change, negative = inhibition: % is set by controls: 0 for no effect and ±100 for the full control effect
# conditionSummary: purified HPGD, NADH fluorescence kinetic, PGE2 substrate; stronger effect = lower value
Screen size: about 150,000 compounds; about 6,500 (4.3%) were called active. Another 12% or so got no clear call; they are omitted. The full list was thinned out, with actives kept by preference.
metric: activity change, negative = inhibition (%)
Express it in %; write the number only.

Request the reported activity change, negative = inhibition associated with CN(CC(=O)NCCc1ccccc1)S(=O)(=O)c1cnc[nH]1
-0.3

Can you look up the measured activity change, negative = inhibition of Nc1nnc(SCCN2C(=O)c3ccccc3S2(=O)=O)s1 for me?
-12.2

// activity change, negative = inhibition lookup, key: COC(=O)C1=C(C(=O)OC)[C@@H]2N(Cc3ccccc3)c3ccccc3[C@@]23C[C@@H](C(=O)OC)N(S(=O)(=O)c2ccc(C(F)(F)F)cc2)C3=N1
-11.4

Which value of activity change, negative = inhibition has been reported for CC(=O)Nc1cc(C(=O)O)ccc1S(=O)(=O)c1ccc(Cl)cc1 in the records?
-9.11

I'd like to know its activity change, negative = inhibition. The compound in question is Cc1ccc(C2CC(=O)NC(SCC(=O)OCc3ccccc3)=C2C#N)o1 (stereo unspecified)
-25.8

What value of measured activity change, negative = inhibition is listed for CCN(CC)c1ccc2oc(=O)c(C)nc2c1 ?
-16.7

Give the measured activity change, negative = inhibition of COC(C(=O)Nc1ccc(C(C)=O)cc1)c1ccccc1 (stereo unspecified) .
-9.31

Give its activity change, negative = inhibition value. Item: CCOC(=O)CSC1=C(C#N)C(c2sccc2C)CC(=O)N1 (stereo unspecified)
-3.48

Consider the compound shown here: C[C@@H](O)c1nc2ccccc2n1N What is its recorded activity change, negative = inhibition?
-7.02

activity change, negative = inhibition for O=C(CCn1c(SCC(=O)c2ccccc2)nc2ccccc2c1=O)NCc1ccc(F)cc1 ?
-4.59

Would you kindly share the measured activity change, negative = inhibition for Cc1scc(C(=O)NNC(=S)NCc2ccccc2)c1C ?
-7.44

###

# subjectOfTest: 15-hydroxyprostaglandin dehydrogenase [NAD(+)] (Homo sapiens)
# experimentDescription: qHTS Assay for Inhibitors of HPGD (15-Hydroxyprostaglandin Dehydrogenase); for activity change, negative = inhibition: % is set by controls: 0 for no effect and ±100 for the full control effect
# conditionSummary: purified HPGD, NADH fluorescence kinetic, PGE2 substrate; stronger effect = lower value
The campaign covered roughly 150,000 compounds. About 6,500 (4.3%) were called active. Roughly 12% stayed inconclusive and do not appear here. This excerpt belongs to a sample that is enriched for actives.
Give activity change, negative = inhibition for every item shown.
Kindly answer with a numeric value in %, unit omitted.

Record O=C(NNC(=O)c1cc2c(s1)CCCC2)c1ccccc1 : what is its activity change, negative = inhibition with 15-hydroxyprostaglandin dehydrogenase [NAD(+)] (Homo sapiens)?
-17.6

Please state recorded activity change, negative = inhibition (tested on 15-hydroxyprostaglandin dehydrogenase [NAD(+)] (Homo sapiens)) of CC(C)(C)NC(=O)C(=O)NCc1ccncc1
-2.72

Recorded activity change, negative = inhibition for COc1ccc(Nc2ncnc3ccc(OC)cc23)cc1 with 15-hydroxyprostaglandin dehydrogenase [NAD(+)] (Homo sapiens), please?
-4.83

Find activity change, negative = inhibition (15-hydroxyprostaglandin dehydrogenase [NAD(+)] (Homo sapiens)) for the entry COC(=O)c1c(NC(=O)CN2C(=O)NC(CCc3ccccc3)C2=O)sc2c1CCCCC2 (stereo unspecified)
-23.3

// map COCCn1c(=NC(=O)c2ccccc2[N+](=O)[O-])sc2cc(S(C)(=O)=O)ccc21 to recorded activity change, negative = inhibition (system: 15-hydroxyprostaglandin dehydrogenase [NAD(+)] (Homo sapiens))
-11.2

Lookup: activity change, negative = inhibition / 15-hydroxyprostaglandin dehydrogenase [NAD(+)] (Homo sapiens) / Cc1ccn(-c2cccc(-n3ccc(C)n3)n2)n1
-19.2

# returns recorded activity change, negative = inhibition (system: 15-hydroxyprostaglandin dehydrogenase [NAD(+)] (Homo sapiens)) for CCCNC(=O)NC(=O)COC(=O)CC(NC(N)=O)c1ccc(Cl)cc1 (stereo unspecified)
-4.57

Param readout = activity change, negative = inhibition; param system = 15-hydroxyprostaglandin dehydrogenase [NAD(+)] (Homo sapiens); param query = Cc1nc2ccccc2cc1C(=O)N/N=C/c1ccc([N+](=O)[O-])cc1 ; response: value
-5.88

Query the reported activity change, negative = inhibition for 15-hydroxyprostaglandin dehydrogenase [NAD(+)] (Homo sapiens); item: FC(F)(F)Oc1ccc(NC(=S)NCc2ccccc2)cc1
-11.2

Notebook entry, 15-hydroxyprostaglandin dehydrogenase [NAD(+)] (Homo sapiens) assay: activity change, negative = inhibition of C/C(=N/NC(=O)c1ccc(Br)o1)c1ccc(C)o1 = ?
-27.2

What measured activity change, negative = inhibition is associated with N#C/C(=C(\O)CCl)c1nnc2n1CCCCC2 on 15-hydroxyprostaglandin dehydrogenase [NAD(+)] (Homo sapiens)?
1.76

###

Hi there, I'd appreciate the recorded activity change, negative = inhibition for every entry that follows.
# subjectOfTest: 15-hydroxyprostaglandin dehydrogenase [NAD(+)] (Homo sapiens)
# experimentDescription: qHTS Assay for Inhibitors of HPGD (15-Hydroxyprostaglandin Dehydrogenase); for activity change, negative = inhibition: % is set by controls: 0 for no effect and ±100 for the full control effect
# conditionSummary: purified HPGD, NADH fluorescence kinetic, PGE2 substrate; stronger effect = lower value
About 6,500 (4.3%) of roughly 150,000 compounds were called active. About 12% were inconclusive and are not listed. The sample holds actives, similar compounds and a random draw of the others, so the mix is not that of the screen.
The figure you give is taken to be in %; do not add the unit.

Tell me the measured activity change, negative = inhibition of Cc1cc(=O)oc(C)c1C(=O)N1CCCCC1 , please.
-2.92

# lookup: activity change, negative = inhibition of O=C(Nc1cccc(C(=O)N2CCCC2)c1)c1ccccc1
-13.5

Entry under review: COC(=O)C(C(=O)OC)[C@@H](NC=O)c1ccccc1 . Reported activity change, negative = inhibition?
-1.83

Fill in the blank: the reported activity change, negative = inhibition of Cc1ccc(NC(=O)O[C@@H]2C(=O)c3cc(Br)ccc3O[C@H]2c2ccc3c(c2)OCO3)cc1Br is ____.
-8.38

What does the record list as activity change, negative = inhibition for Cc1ccc(NC(=O)CCC(=O)N/N=C/c2ccco2)c(C)c1 ?
-2.23

Fill in: activity change, negative = inhibition of Cc1ccc(Cn2ccc(NC(=O)c3cc(C(C)C)on3)n2)cc1 is ___
-19.4

Which activity change, negative = inhibition is listed for CCNc1nc(NC(C)C)nc(N2CC(=O)N(CC(=O)OCC)C2=N)n1 ?
-1.19

Item under review: CCCNC(=O)c1ccc(Cl)c(Cl)c1 . Reported activity change, negative = inhibition?
-21.6

Please look up its activity change, negative = inhibition: N#Cc1ccccc1NC(=O)COc1c(Br)cc(Br)c2cccnc12
-10

Tell me the measured activity change, negative = inhibition of CCOC(=O)C1CCCN(C(=O)C2CCN(c3nnc(-n4cccc4)s3)CC2)C1 (stereo unspecified) , please.
-22.6

Reported activity change, negative = inhibition, compound CCOC(=O)c1c(C)[nH]c(=S)c(C#N)c1-c1ccccc1 : ____
-27.3

###

Answer each item with its documented Potency.
# subjectOfTest: 15-hydroxyprostaglandin dehydrogenase [NAD(+)] (Homo sapiens) (UniProt P15428)
# experimentDescription: qHTS Assay for Inhibitors of HPGD (15-Hydroxyprostaglandin Dehydrogenase); note: potency is the fitted concentration of half-maximal effect
# conditionSummary: purified HPGD, NADH fluorescence kinetic, PGE2 substrate
Screen size: about 150,000 compounds; about 6,500 (4.3%) were called active. About 12% were inconclusive and are not listed. The entries come from a sample that favours actives as a whole.

I am curious: what Potency value has been reported for CCSC(C)CC1C/C(=N/O)c2c(C)noc2C1 (stereo not drawn) ?
25.1 µM (active)

So what does the record say about Potency for COC(=O)/C=C\C(=O)Nc1cccc([N+](=O)[O-])c1 ?
3.16 µM (active)

Quick one: Potency for Cc1nnc(-c2ccc(Oc3ccc(C)c(C)c3)c([N+](=O)[O-])c2)o1 ?
10 µM (active)

What does the record list as Potency for COc1ccc([N+](=O)[O-])cc1N(CC(O)Cn1nnc2ccccc21)S(=O)(=O)c1ccc(C)cc1 (stereo not drawn) ?
28.2 µM (active)

Which Potency is listed for NC1=C([N+](=O)[O-])C(c2ccccc2)C2=C(CCCC2=O)O1 (stereo not drawn) ?
20 µM (active)

Need Potency, item CCCCCCC(=O)N(O)C1CC(=O)N(c2ccccc2)C1=O (stereo not drawn)
15.8 µM (active)

Look at this compound and give its reported Potency. CCS(=O)(=O)n1nc(-c2ccccc2)nc1SCc1ccccc1
14.1 µM (active)

I have this compound here, Cc1cc(SCC(=O)c2ccccc2)nc(SCC(=O)c2ccccc2)n1 , and I need its recorded Potency.
28.2 µM (active)

Find the recorded Potency belonging to CCC(=O)Nc1sc(C(=O)N2CCCCC2)c(C)c1C#N and report it.
4.47 µM (active)

Given the compound CCN(CC)c1ccc(/C=N/Nc2nc(C)cc(C)n2)c(O)c1 , what is its reported Potency?
20 µM (active)

GET /values?readout=Potency&item= O=C(NCc1ccccn1)c1ccc2nc(-c3ccco3)c(-c3ccco3)nc2c1
14.1 µM (active)

# input compound: O=C(C1CCN(c2nnc(-n3cccc3)s2)CC1)N1CCc2ccccc2C1 ; wanted: its Potency
14.1 µM (active)

Given the compound O=C(NC1CCCC1)c1ccc(Br)s1 , what is its reported Potency?
3.55 µM (active)

// returns reported Potency for input Cc1ccc(O)c(-c2cc(C(=O)Nc3c(C)n(C)n(-c4ccccc4)c3=O)[nH]n2)c1
20 µM (active)

Please report the recorded Potency for COc1cccc(NC(=S)NCc2ccco2)c1 .
11.2 µM (active)

What value of measured Potency is listed for CCOC(=O)C1Sc2[nH]c(=O)sc2C(c2ccc(Cl)cc2)C1C(=O)OCC (stereo not drawn) ?
3.98 µM (active)

For the compound shown here, CC1CCCN(C(=O)c2ccc3c(c2)C(=O)N(CCC2=CCCCC2)C3=O)C1 (stereo not drawn) , give the reported Potency.
0.891 µM (active)

Given the compound Cc1cnc(NC(=O)CSc2nnc(-c3ccc(Cl)cc3Cl)n2N)s1 , what is its reported Potency?
25.1 µM (active)

# query: Potency of entry NC(=O)c1c(NC(=O)CSc2nnc(-c3ccco3)n2N)sc2c1CCCC2
14.1 µM (active)

# get_value(readout='Potency', item= Cc1ccc(NC(=O)N2CCC(c3nc4c(nnn4Cc4c(F)cccc4Cl)c(=O)[nH]3)CC2)cc1 )
12.6 µM (active)

Query (compound): O=[N+]([O-])c1c(NCCO)cc(Sc2nc3ccccc3s2)c2nonc12 ; field requested: Potency
11.2 µM (active)

Please give the measured Potency for this compound: COc1ccc2c(Cl)c(C(=O)NCc3ccco3)sc2c1
14.1 µM (active)

Give its Potency value. Item: Cc1nnc(SCC(=O)NC2CCCC2)s1
28.2 µM (active)

Which measured Potency value corresponds to O=C(Nc1ccn(Cc2ccccc2)n1)c1n[nH]c([N+](=O)[O-])c1Cl ?
28.2 µM (active)

Bench note: what Potency did Cc1nn(-c2ccccc2)c(Cl)c1C(=O)Nc1ccccc1 show?
14.1 µM (active)

GET /values?readout=Potency&item= COc1ccc(Cn2nnc3c(=O)[nH]c(C4CCN(C(=O)c5ccccc5Cl)CC4)nc32)cc1
7.94 µM (active)

Query (compound): COC(=O)C(NC(=O)c1ccc(OC)cc1)(Nc1ncc(S(=O)(=O)c2ccc([N+](=O)[O-])cc2)s1)C(F)(F)F (stereo not drawn) ; field requested: Potency
15.8 µM (active)

// returns reported Potency for input C=CCNC(=O)c1csc(-c2ccccc2)n1
15.8 µM (active)

Field request: Potency | item: O=[n+]1c2c(n([O-])c3cc(Br)ccc31)CCC2
11.2 µM (active)

I am curious: what Potency value has been reported for Nc1nnc(SCC(=O)Nc2ccc3nc(SCC(=O)Nc4ccccc4)sc3c2)s1 ?
4.47 µM (active)

Bench note: what Potency did CSc1c(SCc2ccccc2)cnn(Cc2ccccc2)c1=O show?
25.1 µM (active)

For the compound CC1CCCCC1NC(=O)CSc1nnc(N)s1 (stereo not drawn) , what Potency is on record?
17.8 µM (active)

Param item = O=C(Nc1cc(=O)[nH]c2ncnn12)c1ccccc1Cl ; retrieve measured Potency.
22.4 µM (active)

Entry Cc1ccccc1-c1ccc(Nc2ccc(C(=O)N3CCOCC3)cc2)nn1 : reported Potency = ?
22.4 µM (active)

Look at this compound and give its reported Potency. COc1ccc(C(CCN(Cc2ccc(OC)c(OC)c2)C(=O)CCl)c2ccccc2)cc1 (stereo not drawn)
10 µM (active)

What does the record list as Potency for O=C(NCc1ccco1)c1cc2sccc2n1Cc1ccc(F)cc1 ?
17.8 µM (active)

Look up Potency: O=S(=O)(Nc1ccc(Oc2ncccn2)c(Cl)c1)c1ccc(F)cc1
35.5 µM (active)

# Potency lookup, item COC(=O)c1cc(C(=O)CSc2nc(C)cc(C)n2)ccc1O
17.8 µM (active)

Endpoint output: Potency of COc1ccccc1-c1cc(C(=O)N2CCCCC2)no1 . Value?
3.55 µM (active)

If you can, please state the reported Potency value of O=C(Nc1ccccc1)c1nnsc1S(=O)(=O)c1ccc(Cl)cc1 .
11.2 µM (active)

Query (compound): CCCCCNC(=O)c1cccnc1SCC(=O)Nc1ccccc1OC ; field requested: Potency
10 µM (active)

What value of Potency has been reported for the following compound? O=C(NCc1ccco1)c1sc2cccc(F)c2c1Cl
3.98 µM (active)

Entry under review: Oc1c(C=Nc2cccc3nsnc23)ccc2ccccc12 . Reported Potency?
25.1 µM (active)
